Answer each item with its documented Papp A→B.
Assay: Permeability across apical to basolateral side in human Caco2 cells
Type: ADME, cell-based
Settings: Caco-2, read-out: permeability

IN: Recorded Papp A→B of "COc1ccc(-c2nnc(-c3ccc4nc(-c5c(C)cc(CCC(=O)O)cc5C)[nH]c4c3)o2)cc1" , please.
OUT: 1.4 ×10⁻⁶ cm/s

IN: Recorded Papp A→B of "Cc1cc(CC(C)(C)C(=O)O)cc(C)c1-c1nc2ccc(C(=O)Nc3ccc4ccccc4n3)cc2[nH]1" , please.
OUT: 3.5 ×10⁻⁶ cm/s

IN: Recorded Papp A→B of "Cc1cc(CCC(=O)O)cc(C)c1-c1nc2ccc(C(=O)Nc3ccc4ccccc4n3)cc2[nH]1" , please.
OUT: 1.4 ×10⁻⁶ cm/s

IN: Recorded Papp A→B of "COc1ccc(-c2nnc(-c3ccc4nc(-c5c(C)cc(CC(C)(C)C(=O)O)cc5C)[nH]c4c3)o2)cc1" , please.
OUT: 4.2 ×10⁻⁶ cm/s

====

Assay: Clearance in Sprague-Dawley rat at 1 mg/kg, iv by LC/MS/MS analysis
Type: ADME, organism-based
Conditions: in vivo
Measurement Name: clearance (mL/min/kg)
Quick note: give the figure in mL/min/kg, leave out the unit.

IN: Recorded clearance of "COc1ccc(-c2nnc(-c3ccc4nc(-c5c(C)cc(CCC(=O)O)cc5C)[nH]c4c3)o2)cc1" , please.
OUT: 21

IN: Recorded clearance of "Cc1cc(CCC(=O)O)cc(C)c1-c1nc2ccc(C(=O)Nc3ccc4ccccc4n3)cc2[nH]1" , please.
OUT: 6.9

IN: Recorded clearance of "COc1ccc(-c2nnc(-c3ccc4nc(-c5c(C)cc(CC(C)(C)C(=O)O)cc5C)[nH]c4c3)o2)cc1" , please.
OUT: 9.5

IN: Recorded clearance of "Cc1cc(CC(C)(C)C(=O)O)cc(C)c1-c1nc2ccc(C(=O)Nc3ccc4ccccc4n3)cc2[nH]1" , please.
OUT: 5.5

====

Answer each item with its documented Papp B→A.
Experiment: Permeability across basolateral to apical side in human Caco2 cells
Format: ADME, cell-based
Conditions: Caco-2, read-out: permeability
Quick note: give the figure in ×10⁻⁶ cm/s, leave out the unit.

IN: Recorded Papp B→A of "Cc1cc(CC(C)(C)C(=O)O)cc(C)c1-c1nc2ccc(C(=O)Nc3ccc4ccccc4n3)cc2[nH]1" , please.
OUT: 12.4

IN: Recorded Papp B→A of "Cc1cc(CCC(=O)O)cc(C)c1-c1nc2ccc(C(=O)Nc3ccc4ccccc4n3)cc2[nH]1" , please.
OUT: 14.1

IN: Recorded Papp B→A of "COc1ccc(-c2nnc(-c3ccc4nc(-c5c(C)cc(CC(C)(C)C(=O)O)cc5C)[nH]c4c3)o2)cc1" , please.
OUT: 10

IN: Recorded Papp B→A of "COc1ccc(-c2nnc(-c3ccc4nc(-c5c(C)cc(CCC(=O)O)cc5C)[nH]c4c3)o2)cc1" , please.
OUT: 9.2

====

Answer each item with its documented half-life.
Experiment: Half life in Sprague-Dawley rat at 1 mg/kg, iv by LC/MS/MS analysis
Format: ADME, organism-based
Conditions: in vivo
Quick note: give the figure in min, leave out the unit.

IN: Recorded half-life of "Cc1cc(CC(C)(C)C(=O)O)cc(C)c1-c1nc2ccc(C(=O)Nc3ccc4ccccc4n3)cc2[nH]1" , please.
OUT: 48

IN: Recorded half-life of "COc1ccc(-c2nnc(-c3ccc4nc(-c5c(C)cc(CCC(=O)O)cc5C)[nH]c4c3)o2)cc1" , please.
OUT: 96

IN: Recorded half-life of "COc1ccc(-c2nnc(-c3ccc4nc(-c5c(C)cc(CC(C)(C)C(=O)O)cc5C)[nH]c4c3)o2)cc1" , please.
OUT: 114

IN: Recorded half-life of "Cc1cc(CCC(=O)O)cc(C)c1-c1nc2ccc(C(=O)Nc3ccc4ccccc4n3)cc2[nH]1" , please.
OUT: 102
